molecular target: RSV A2 pre-F (RSV A2); test: BLI
pKd: −log10 of the molar value.
Each entry below carries its reported pKd.

# BINDER, RELATION_SYMBOL, pKd
rows = [
    ("F6-133 (antibody, V domains shown) VH: EVQVVESGGGLVQPGGSLRLSCAASSFSVTGSYMTWVRQAPGKGLESVSLIYSTGSTYYADSVKGRFVISRDDSKNILFLQMNNLRVEDTGVYFCARLGPAGGSWSWEFYGLDVWGQGTTVTVFS VL: CVQMTQSPSFLSASVGDRVTISCRASQGTTSYLAWYQQKPGKAPKLLIYGVSTLQTGVPSRFSGSGSGTDFTLTISNLQPEDFATYYCQQVNIFPYTFGPGTKVEIK", "=", 10.17),
    ("F6-213 (antibody, V domains shown) VH: QEQLVQSGAEVKRPGTSVKVSCKASGYAFTDYSIHWVRQAPGVGLEWMGKIYPGDGHALYAQNFQGRVTLTRDTSTASVYMELRSLRSQDTAVYYCVAYERATTLAGAGASDIWGQGTMVTVSS VL: DIVMTQSPLSLPVTPGEPASISCRSSQSLLQSDGYNYMDWYLQKPGRSPQLLIYLGSHRASGVPDRFSGSGSGTDFTLRISRVKAEDVGIYYCMQSLQSPFTFGPGTKVDIK", "=", 8.89),
    ("F6-132 (antibody, V domains shown) VH: QEQSVQSGAEVKKPGASVKVSCRASEFTFSTDFIHWVRQAPGQGLEWMGRITPSDGTTTYAQKFQGRVTMTRDPSTNTVYIELRRLKSEDTAVYYCVAYDRVTTSAGTGASDIWGQGTMVTVSS VL: DIVMTQSPLSLPVTPGEPASISCRSSQSLLHGDGYNYLDWYLQKPGRSPQLLIYLGSHRASGVPDRFSGSGSGTDFTLRISRVEAEDVGIYYCMQGLQTPFTFGPGTKVDIK", ">", 12.00),
]
